inhibition by entry:
EXPERIMENTAL_TARGET: Kir3.1/Kir3.4 (Homo sapiens) (UniProt P48549+P48544)
MEASUREMENT_PROTOCOL: Inhibition of GIRK1/4 (unknown origin) relative to SCH3320
Type: protein-complex assay
Design: concentration or dose not given beside the values
CONDITIONS: concentration not given here

# MOL, UNIT, inhibition
records = [
    ("O=C(Nc1cccc(Cl)c1)Nc1cc(CC2CC2)nn1-c1ccccc1", "%", 72),
    ("O=C(Nc1ccc(F)c(Cl)c1)Nc1cc(C2CCC2)nn1-c1ccccc1", "%", 69),
    ("O=C(Nc1cccc(Cl)c1)Nc1cc(C2CCC2)nn1-c1ccccc1", "%", 89),
    ("CC(C)c1cc(NC(=O)Nc2cccc(F)c2)n(-c2ccccc2)n1", "%", 70),
    ("CC(C)c1cc(NC(=O)Nc2cccc(C(F)(F)F)c2)n(-c2ccccc2)n1", "%", 100),
    ("O=C(Nc1cccc(Br)c1)Nc1cc(C2CCC2)nn1-c1ccccc1", "%", 69),
]

* * *

Efficacy values for the molecules below.
EXPERIMENTAL_TARGET: Kir3.1/Kir3.2 (Homo sapiens) (UniProt P48549+P48051)
MEASUREMENT_PROTOCOL: Activation of GIRK1/2 (unknown origin) relative to ML297
Type: protein-complex assay

# MOL, Efficacy, %
measured = [
    ("Cc1cc(NC(=O)Nc2ccc(F)c(F)c2)n(-c2ccccn2)n1", 78),
    ("Cc1cc(NC(=O)Nc2ccc(F)c(F)c2)n(-c2ccc(F)cc2)n1", 78),
    ("O=C(Nc1cccc(Cl)c1)Nc1cc(C2CC2)nn1-c1ccccc1", 37),
    ("Cc1cc(NC(=O)Nc2ccc(F)c(F)c2)n(-c2ccncc2)n1", 88),
    ("CC(C)c1cc(NC(=O)Nc2cccc(C(F)(F)F)c2)n(Cc2ccccc2)n1", 38),
    ("O=C(Nc1ccc(F)c(Cl)c1)Nc1cc(C2CC2)nn1Cc1ccccc1", 47),
    ("Cc1cc(NC(=O)Nc2ccc(F)c(F)c2)n(Cc2ccccc2)n1", 87),
    ("O=C(Nc1cccc(Br)c1)Nc1cc(C2CC2)nn1Cc1ccccc1", 44),
    ("O=C(Nc1ccc(F)cc1)Nc1cc(C2CC2)nn1Cc1ccccc1", 57),
    ("CC(C)c1cc(NC(=O)Nc2cccc(Cl)c2)n(Cc2ccccc2)n1", 35),
    ("O=C(Nc1ccc(F)c(F)c1)Nc1cc(C2CC2)nn1-c1ccccc1", 32),
    ("Cc1cc(NC(=O)Nc2ccc(F)c(F)c2)n(CC(F)(F)F)n1", 96),
    ("O=C(Nc1cccc(F)c1)Nc1cc(C2CC2)nn1Cc1ccccc1", 46),
    ("Cc1ccc(NC(=O)Nc2cc(C3CC3)nn2Cc2ccccc2)cc1", 35),
    ("O=C(Nc1cccc(C(F)(F)F)c1)Nc1cc(C2CC2)nn1Cc1ccccc1", 35),
]

* * *

EXPERIMENTAL_TARGET: G protein-activated inward rectifier potassium channel 2 (Homo sapiens) (UniProt P48051)
MEASUREMENT_PROTOCOL: Activation of GIRK2 (unknown origin)
Activity calls are given as the source filed them. The rule behind the calls is not given here.

# MOL, Activity
data = [
    ("Cc1cc(NC(=O)Nc2ccc(F)c(F)c2)n(-c2ccccn2)n1", "inactive"),
    ("O=C(Nc1ccc(F)c(F)c1)Nc1cc(CC2CC2)nn1-c1ccccc1", "inactive"),
    ("O=C(Nc1ccc(F)c(F)c1)Nc1cc(C2CCC2)nn1-c1ccccc1", "inactive"),
    ("O=C(Nc1ccc(F)c(F)c1)Nc1cc(C(F)(F)F)nn1-c1ccccc1", "inactive"),
    ("O=C(Nc1ccc(F)c(F)c1)Nc1cc(-c2ccccc2)nn1-c1ccccc1", "inactive"),
    ("Cc1cc(NC(=O)Nc2ccc(F)c(F)c2)n(-c2ccc(F)cc2)n1", "inactive"),
]

* * *

EXPERIMENTAL_TARGET: Kir3.1/Kir3.2 (Homo sapiens) (UniProt P48549+P48051)
MEASUREMENT_PROTOCOL: Inhibition of GIRK1/2 (unknown origin) relative to SCH3320
Assay type: protein-complex assay
Set-up: concentration or dose not given beside the values
CONDITIONS: concentration not given here
Threshold rule: inhibition greater than or equal to 80% is Fulfilled; below that, Not fulfilled.

# MOL, CLASS_NAME
data = [
    ("Cc1ccc(NC(=O)Nc2cc(C(C)C)nn2-c2ccccc2)cc1", "Fulfilled"),
    ("O=C(Nc1cccc(C(F)(F)F)c1)Nc1cc(C2CCC2)nn1-c1ccccc1", "Not fulfilled"),
    ("Cc1cccc(NC(=O)Nc2cc(C(C)C)nn2-c2ccccc2)c1", "Fulfilled"),
    ("O=C(Nc1cccc(Cl)c1)Nc1cc(CC2CC2)nn1-c1ccccc1", "Not fulfilled"),
    ("O=C(Nc1ccc(F)c(F)c1)Nc1cc(C2CCCC2)nn1-c1ccccc1", "Fulfilled"),
]

* * *

EXPERIMENTAL_TARGET: Kir3.1/Kir3.2 (Homo sapiens) (UniProt P48549+P48051)
MEASUREMENT_PROTOCOL: Inhibition of GIRK1/2 (unknown origin) relative to SCH3320
Format: protein-complex assay
Set-up: concentration or dose not given beside the values
CONDITIONS: concentration not given here
Quick list: inhibition per entry.

# MOL, inhibition
data = [
    ("O=C(Nc1cccc(Br)c1)Nc1cc(C2CCC2)nn1-c1ccccc1", "51%"),
    ("O=C(Nc1cccc(Cl)c1)Nc1cc(C2CCC2)nn1-c1ccccc1", "64%"),
    ("O=C(Nc1cccc(F)c1)Nc1cc(C2CC2)nn1-c1ccccc1", "60%"),
    ("Cc1cccc(NC(=O)Nc2cc(CC3CC3)nn2-c2ccccc2)c1", "83%"),
    ("CC(C)c1cc(NC(=O)Nc2ccc(F)c(F)c2)n(-c2ccccc2)n1", "136%"),
    ("O=C(Nc1ccc(F)c(F)c1)Nc1cc(CC2CC2)nn1-c1ccccc1", "95%"),
    ("O=C(Nc1ccc(F)c(Cl)c1)Nc1cc(C2CCC2)nn1-c1ccccc1", "70%"),
    ("CC(C)c1cc(NC(=O)Nc2cccc(F)c2)n(-c2ccccc2)n1", "77%"),
    ("CSc1cccc(NC(=O)Nc2cc(C3CC3)nn2-c2ccccc2)c1", "86%"),
    ("CC(C)c1cc(NC(=O)Nc2cccc(C(F)(F)F)c2)n(-c2ccccc2)n1", "62%"),
    ("O=C(Nc1cccc(C(F)(F)F)c1)Nc1cc(CC2CC2)nn1-c1ccccc1", "88%"),
    ("O=C(Nc1ccc(F)c(Cl)c1)Nc1cc(CC2CC2)nn1-c1ccccc1", "87%"),
    ("O=C(Nc1ccc(F)cc1)Nc1cc(CC2CC2)nn1-c1ccccc1", "80%"),
    ("O=C(Nc1cccc(F)c1)Nc1cc(CC2CC2)nn1-c1ccccc1", "75%"),
]

* * *

# maps each entry to its EC50
EXPERIMENTAL_TARGET: Kir3.1/Kir3.2 (Homo sapiens, UniProt P48051+P48549)
Sequence (P48549 whole entry): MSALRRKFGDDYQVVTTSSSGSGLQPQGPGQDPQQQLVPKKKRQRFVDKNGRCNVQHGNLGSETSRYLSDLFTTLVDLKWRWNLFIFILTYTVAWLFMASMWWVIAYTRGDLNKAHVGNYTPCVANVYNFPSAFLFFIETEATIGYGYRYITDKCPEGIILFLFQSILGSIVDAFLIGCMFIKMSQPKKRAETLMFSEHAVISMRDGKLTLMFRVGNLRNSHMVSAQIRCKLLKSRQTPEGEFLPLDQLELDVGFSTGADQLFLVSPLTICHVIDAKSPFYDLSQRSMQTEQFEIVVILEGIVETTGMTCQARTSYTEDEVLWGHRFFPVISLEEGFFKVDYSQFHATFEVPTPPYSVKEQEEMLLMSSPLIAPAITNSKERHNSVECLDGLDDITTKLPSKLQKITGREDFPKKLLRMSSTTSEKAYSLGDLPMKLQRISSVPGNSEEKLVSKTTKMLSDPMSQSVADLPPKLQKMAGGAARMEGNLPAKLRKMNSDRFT
Sequence (P48051 whole entry): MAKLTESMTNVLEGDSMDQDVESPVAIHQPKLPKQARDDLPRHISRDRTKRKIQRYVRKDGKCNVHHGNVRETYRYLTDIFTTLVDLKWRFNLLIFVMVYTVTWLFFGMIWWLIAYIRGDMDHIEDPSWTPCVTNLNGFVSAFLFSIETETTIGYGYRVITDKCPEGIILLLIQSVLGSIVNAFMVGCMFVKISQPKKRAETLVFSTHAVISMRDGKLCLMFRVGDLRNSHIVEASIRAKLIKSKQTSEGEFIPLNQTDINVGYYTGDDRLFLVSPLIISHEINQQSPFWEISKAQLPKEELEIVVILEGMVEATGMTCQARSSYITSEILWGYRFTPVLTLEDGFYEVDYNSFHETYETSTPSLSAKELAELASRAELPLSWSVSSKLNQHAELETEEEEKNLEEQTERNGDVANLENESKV
MEASUREMENT_PROTOCOL: Activation of GIRK1/2 (unknown origin)
Type: protein-complex assay
MEASURE: EC50

# MOL, EXPERIMENTAL_TARGET, OBSERVED
records = [
    ("O=C(Nc1ccc(F)c(F)c1)Nc1cc(-c2ccccc2)nn1-c1ccccc1", "Kir3.1/Kir3.2 (Homo sapiens, UniProt P48051+P48549)", "> 30000 nM"),
    ("CC(C)c1cc(NC(=O)Nc2cccc(C(F)(F)F)c2)n(Cc2ccccc2)n1", "Kir3.1/Kir3.2 (Homo sapiens, UniProt P48051+P48549)", "1700 nM"),
    ("Cc1ccc(NC(=O)Nc2cc(C3CC3)nn2Cc2ccccc2)cc1", "Kir3.1/Kir3.2 (Homo sapiens, UniProt P48051+P48549)", "570 nM"),
    ("O=C(Nc1cccc(Cl)c1)Nc1cc(C2CC2)nn1-c1ccccc1", "Kir3.1/Kir3.2 (Homo sapiens, UniProt P48051+P48549)", "1400 nM"),
    ("O=C(Nc1cccc(Br)c1)Nc1cc(C2CC2)nn1Cc1ccccc1", "Kir3.1/Kir3.2 (Homo sapiens, UniProt P48051+P48549)", "380 nM"),
    ("Cc1cc(NC(=O)Nc2ccc(F)c(F)c2)n(CC(F)(F)F)n1", "Kir3.1/Kir3.2 (Homo sapiens, UniProt P48051+P48549)", "460 nM"),
    ("Cc1cc(NC(=O)Nc2ccc(F)c(F)c2)n(-c2ccncc2)n1", "Kir3.1/Kir3.2 (Homo sapiens, UniProt P48051+P48549)", "> 10000 nM"),
    ("O=C(Nc1ccc(F)cc1)Nc1cc(C2CC2)nn1Cc1ccccc1", "Kir3.1/Kir3.2 (Homo sapiens, UniProt P48051+P48549)", "350 nM"),
    ("Cc1cc(NC(=O)Nc2ccc(F)c(F)c2)n(-c2ccccn2)n1", "Kir3.1/Kir3.2 (Homo sapiens, UniProt P48051+P48549)", "> 10000 nM"),
    ("O=C(Nc1ccc(F)c(F)c1)Nc1cc(C2CC2)nn1-c1ccccc1", "Kir3.1/Kir3.2 (Homo sapiens, UniProt P48051+P48549)", "410 nM"),
    ("O=C(Nc1cccc(F)c1)Nc1cc(C2CC2)nn1Cc1ccccc1", "Kir3.1/Kir3.2 (Homo sapiens, UniProt P48051+P48549)", "530 nM"),
    ("Cc1cc(NC(=O)Nc2ccc(F)c(F)c2)n(Cc2ccccc2)n1", "Kir3.1/Kir3.2 (Homo sapiens, UniProt P48051+P48549)", "70 nM"),
    ("O=C(Nc1cccc(C(F)(F)F)c1)Nc1cc(C2CC2)nn1Cc1ccccc1", "Kir3.1/Kir3.2 (Homo sapiens, UniProt P48051+P48549)", "340 nM"),
    ("O=C(Nc1ccc(F)c(Cl)c1)Nc1cc(C2CC2)nn1Cc1ccccc1", "Kir3.1/Kir3.2 (Homo sapiens, UniProt P48051+P48549)", "210 nM"),
    ("CC(C)c1cc(NC(=O)Nc2cccc(Cl)c2)n(Cc2ccccc2)n1", "Kir3.1/Kir3.2 (Homo sapiens, UniProt P48051+P48549)", "470 nM"),
    ("Cc1cc(NC(=O)Nc2ccc(F)c(F)c2)n(-c2ccc(F)cc2)n1", "Kir3.1/Kir3.2 (Homo sapiens, UniProt P48051+P48549)", "190 nM"),
]
